Entry source: PubChem BioAssay

Parameter activity: see the listing below.
- tested on: Tumor necrosis factor receptor superfamily member 10B (Homo sapiens)
- assay notes: caspase-8 TRAIL sensitization, hit retest, confirmation, cell-based, NB7+caspase-8, with/without TRAIL, luminescence panel (AID 651596)
- experimental setup: NB7 neuroblastoma + caspase-8, TRAIL sensitization, luminescence viability, with TRAIL, mean of runs, at 10 µM, stronger effect = higher value
State just the number; it will be interpreted in %.

# count of solved cases: 5
| compound | observed measurement |
| --- | --- |
| O=C(OCn1ncc(Cl)c(Cl)c1=O)c1ccc(C(F)(F)F)cc1 | 95.2 |
| C=C(C)CSc1nnc2n(Cc3ccccc3)c(=O)c3c4c(sc3n12)CCC4 | 90.4 |
| COC(=O)C1=C(C)N(Cc2ccccc2)C(=NCCc2c[nH]c3ccccc23)N[C@H]1c1cccc(C(F)(F)F)c1 | 17.3 |
| Cc1ccc(NC2=Nc3ccccc3CS2)cc1 | 57.4 |
| Cc1cccc(/C(N)=N/OC(=O)c2cccc3ccccc23)c1 | 89.5 |

Bench note: what activity did O=C(Nc1ccc2c(c1)OCCO2)NC1CCCCC1 show?
49.5

Same question, O=C(N/N=C/c1cccc(NC(=O)c2ccc(Cl)cc2)c1)c1ccc(O)cc1 this time
58.4

Now try Cc1ccc(-c2cc3nc4c(c(=O)n3[nH]2)CCCC4)cc1 .
55.2

O=S(=O)(c1ccccc1)c1nnn2c1nc(NC1CCN(Cc3ccccc3)CC1)c1ccccc12 ?
97.9

Also Cc1ccc(-c2cc3onc(-c4ccccc4)c3c(=O)n2C)cc1 ?
75

Thanks! And C(=NNc1ccc2ccccc2n1)c1ccccn1 ?
82.5

* * *

- tested on: Tumor necrosis factor receptor superfamily member 10B (Homo sapiens) (UniProt O14763)
- Sequence (O14763 whole entry, looked up): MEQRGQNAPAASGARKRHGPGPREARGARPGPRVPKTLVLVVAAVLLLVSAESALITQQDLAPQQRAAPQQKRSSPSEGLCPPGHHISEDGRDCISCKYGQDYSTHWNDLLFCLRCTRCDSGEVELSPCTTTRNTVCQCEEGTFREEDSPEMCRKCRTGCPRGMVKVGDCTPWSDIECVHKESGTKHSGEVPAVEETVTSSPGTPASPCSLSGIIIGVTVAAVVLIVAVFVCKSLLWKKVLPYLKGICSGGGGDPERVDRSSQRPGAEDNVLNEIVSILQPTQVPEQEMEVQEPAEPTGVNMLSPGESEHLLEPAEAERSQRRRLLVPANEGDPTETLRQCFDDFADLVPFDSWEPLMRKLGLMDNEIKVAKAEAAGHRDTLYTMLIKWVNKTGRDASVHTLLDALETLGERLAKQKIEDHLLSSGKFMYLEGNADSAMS
- assay notes: caspase-8 TRAIL sensitization, hit retest, confirmation, cell-based, NB7+caspase-8, with/without TRAIL, luminescence panel (AID 651596)
- experimental setup: NB7 neuroblastoma + caspase-8, TRAIL sensitization, luminescence viability, with TRAIL, mean of runs, at 10 µM, stronger effect = higher value
property label: activity (%)
Please give a number only; it is taken to be in %.

Examples with their reported activity follow.
| compound | unit tag | activity |
| --- | --- | --- |
| CC(=O)c1sc(NC(=O)c2cc(=O)c3ccccc3o2)nc1C | % | 51.1 |
| CC(C)C[C@H](NC(=O)c1nc[nH]c1C(=O)N[C@@H](CC(C)C)C(=O)OC(C)(C)C)C(=O)OC(C)(C)C | % | 72.4 |
| COc1ccccc1C(CNc1ccc(S(=O)(=O)N2CCCC2)cc1[N+](=O)[O-])N(C)C (centres undefined) | % | 52.1 |

Moving on to the next compound.
Form entry - test system: Tumor necrosis factor receptor superfamily member 10B (Homo sapiens) (UniProt O14763); read-out: activity; compound: CC(C)C[C@H]1CNC(=S)N1C[C@H]1CCCN1C[C@H](Cc1ccccc1)N1C[C@H](Cc2ccc(O)cc2)N(CC2CCCCC2)C1=S
-0.175

* * *

- tested on: Tumor necrosis factor receptor superfamily member 10B (Homo sapiens)
- assay notes: caspase-8 TRAIL sensitization, hit retest, confirmation, cell-based, NB7+caspase-8, with/without TRAIL, luminescence panel (AID 651596)
- experimental setup: NB7 neuroblastoma + caspase-8, TRAIL sensitization, luminescence viability, with TRAIL, mean of runs, at 10 µM, stronger effect = higher value
property label: activity (%)
Number in %, nothing else.

Worked examples follow.
| compound | tested on | observed measurement |
| --- | --- | --- |
| O=S(=O)(Nc1nc2ccccc2nc1N1CCc2ccccc2C1)c1ccc(Br)cc1 | Tumor necrosis factor receptor superfamily member 10B (Homo sapiens) | 55.5 |
| O=C(Cn1ncc(Cl)c(Cl)c1=O)NCC1CCCCC1 | Tumor necrosis factor receptor superfamily member 10B (Homo sapiens) | 98.9 |
| CC(/C=N/NC(=O)c1n[nH]c2c1CCC2)=C\c1ccccc1 | Tumor necrosis factor receptor superfamily member 10B (Homo sapiens) | 48.1 |
| COC(=O)c1ccc2c(c1)C(C)(C)C(/C=C/c1ccc(OC)c(OC)c1OC)=[N+]2C | Tumor necrosis factor receptor superfamily member 10B (Homo sapiens) | 73.8 |
| Cc1ccc2nc(NC(=O)c3ccccn3)sc2c1 | Tumor necrosis factor receptor superfamily member 10B (Homo sapiens) | 94 |
| COc1ccc(-c2cc(C(=O)N3CCOCC3)no2)cc1 | Tumor necrosis factor receptor superfamily member 10B (Homo sapiens) | 50.8 |

What activity value was documented for this compound, CN(C(=O)OC(C)(C)C)c1ccc(-c2nc3ccccc3s2)cc1 ?
92.6

Repeat with Fc1cccc2sc(Nc3nc4cc5c(cc4s3)OCCO5)nc12
40.2

* * *

- tested on: 72 kDa type IV collagenase (Homo sapiens)
- assay notes: MMP-2 protease inhibition counter-screen, confirmation, counter-screen for CSN deneddylation inhibitor project, biochemical, fluorescence, single concentration (AID 720655);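 note: plate controls were DMSO wells with enzyme for no effect and buffer wells lacking MMP-2 for full effect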
- experimental setup: recombinant MMP-2, FRET substrate fluorescence, 60 min; at 16.6 µM
The other results are listed elsewhere or left out.
Attribute: inhibition
Give just the numeric value; % need not be written.

Example entries and their recorded answers appear below.
| compound | unit tag | observed measurement |
| --- | --- | --- |
| COc1cc(/C=C2/C(=O)NN(c3cccc(Cl)c3)C2=O)cc(Br)c1O | % | -17.1 |
| Cc1ccc(-c2nn(-c3ccccc3)cc2/C=C2\SC(=S)N(CCCCCC(=O)O)C2=O)o1 | % | -170 |
| Cc1ccc(C(=O)O)cc1-c1ccc(/C=C2\SC(=O)N(CC(=O)Nc3ccc4c(c3)OCO4)C2=O)o1 | % | -3.01 |
| Cc1ccc(N=C2NC(=O)/C(=C/C=C/c3ccco3)S2)cc1C | % | 13.5 |
| C=CCC1=C/C(=C\c2c(N)n3nc(CC(=O)N4CCOCC4)sc3nc2=O)C=C(OC)C1=O | % | -4.68 |

Notebook entry, 72 kDa type IV collagenase (Homo sapiens) assay: inhibition of CC[n+]1cc(C)ccc1/C=C/c1ccc(N(C)C)cc1 = ?
-78.8

Check COc1ccc2[nH]c3c(C)c4cc[n+](C)cc4c(C)c3c2c1 too.
-35.8

CCC(C)Cn1c(O)cc2nn(-c3nc4ccccc4s3)c(=O)c-2c1C (stereo unspecified) , same question.
16

// repeat for CC(C)Cn1c(N)c(C(=O)NCc2cccs2)c2nc3ccccc3nc21 and report
1.55

Similarly, CC(C)(C)C1C/C(=C/c2ccco2)C(=O)/C(=C/c2ccco2)C1 (stereo unspecified) ?
1.32

Input COc1ccc2c(c1)c(=Cc1ccc(N(C)C)cc1)c1cc(-c3ccccc3)[n+](C)n12
81.7

* * *

The reader will find reported inhibition values listed item by item below.
- Tested on: Rat fibroblasts (CREF)
- assay notes: Peg3 promoter luciferase inhibitors, potency, dose response, cell-based, HeLa, CREF/GAPDH counter-screen panel (AID 624167)
- experimental setup: CREF/GAPDH counter-screens; run 1, dose range 1, at 100 µM (top of the series)
Numeric only. Scale: %

Recorded inhibition, per entry:
| compound | property label | unit tag | observed measurement |
| --- | --- | --- | --- |
| CN(C)c1ccc(/C=C/c2nc3ccccc3s2)cc1 | inhibition | % | 96.6 |
| O=C(CNc1ccccc1)N/N=C/c1c(O)ccc2ccccc12 | inhibition | % | 73.1 |
| Cc1ccc2nc(-c3ccc4c(c3)OCCO4)cn2c1 | inhibition | % | 100 |

Would you kindly share the measured inhibition for NC(Cc1ccc(F)cc1)c1csc(Nc2cc(Oc3ccccc3)ncn2)n1 (centres undefined) ?
95.3

Repeat with O=C(O)c1cccc(COc2ccc3c(c2)CCC3)c1
91.1

* * *

Below, each of the compounds is paired with its reported inhibition value.
- tested on: Sentrin-specific protease 8 (Homo sapiens) (UniProt Q96LD8)
- Sequence (Q96LD8 whole entry, looked up): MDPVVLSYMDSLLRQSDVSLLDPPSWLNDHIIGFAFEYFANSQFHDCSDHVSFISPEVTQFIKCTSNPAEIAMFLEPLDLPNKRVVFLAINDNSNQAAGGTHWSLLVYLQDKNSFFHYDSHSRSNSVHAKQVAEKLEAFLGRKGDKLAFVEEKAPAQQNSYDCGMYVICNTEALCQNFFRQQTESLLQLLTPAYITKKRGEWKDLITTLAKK
- assay notes: SENP8 protease inhibitors, retest, confirmation, biochemical, luminescence, single concentration (AID 488912)
- experimental setup: Recombinant SENP8, Z-RLRGG-aminoluciferin luminescence, 60 min; at 12.5 µM; stronger effect = higher value
The list shows a part of the results.
Numbers only here, please. The scale is %.

For orientation, consider the following solved cases.
| compound | unit tag | observed measurement |
| --- | --- | --- |
| COCn1c(COc2ccccc2)nc2ccccc21 | % | 39.7 |
| CCCCCc1ccc(-c2ccc(C(=O)O)cc2)nc1 | % | -2.1 |
| O=C(Nc1nnc(S(=O)(=O)N2CCCCCC2)s1)c1cccc(Br)c1 | % | 42.1 |
| O=[N+]([O-])c1ccccc1N/N=C1\CCc2ccccc21 | % | -9.3 |
| O=C(Nc1nc2ccc([N+](=O)[O-])cc2s1)c1ccncc1 | % | 16 |

Which value of inhibition has been reported for C=CCNC(=S)N1CCN(CCN=Cc2c(C)[nH]n(-c3ccc([N+](=O)[O-])cc3)c2=O)CC1 in the records?
0.7

Now consider CC(C)(C)c1ccc(NC(=O)NCc2ccco2)cc1 and answer again.
-28.3

Another compound: O=C(OCC(=O)N1CCN(c2ccccc2)CC1)c1ccc([N+](=O)[O-])s1
64.2

Check Cc1[nH]n(C(N)=S)c(=O)c1N=Nc1ccc(Cl)cc1Cl too.
81.4

Query Cc1cc(C(=O)N/N=C/c2ccc(N3CCOCC3)cc2)c(C)o1 next
86.9

Request: O=C(Nc1ccc(C(=O)O)c(O)c1)c1ccccc1
73

Next: COc1cccc(-c2nc3cc(C)ccc3o2)c1
96.1

// next record O=C1C(=O)N(CCCN2CCOCC2)C(c2ccc([N+](=O)[O-])cc2)/C1=C(\O)c1ccc2c(c1)OCCO2 (stereo not drawn)
-13.1

Further, for Cc1ccc(/C=N/NC(=O)c2cc3ccccc3cc2O)o1 ?
67

Moving on to Cc1ccc(OCc2nc3ccccc3n2C)cc1
8.9

Subsequent entry: Cc1cccc(/C=N/NC(=O)CNc2cccc3ccccc23)n1
13.1

Again, but for c1ccc2[nH]c(-c3nc4ccccc4[nH]3)nc2c1
-14.2

Would you mind doing CCCCSc1nnc(-c2ccc(C)cc2)o1 as well?
19.5

Cc1sc(NC(=O)c2ccc3ncsc3c2)c(C(N)=O)c1C , same question.
-15.3

Cool, now Cc1[nH]n(-c2ccc([N+](=O)[O-])cc2)c(=O)c1C=NCCN1CCN(C(=O)c2ccccc2F)CC1
20.7

Query CC(C)CCNC(=O)c1ccc2c(Cl)c3c(nc2c1)CCC3 next
84.1

Cc1cc(NC(=O)Nc2ccccc2[N+](=O)[O-])no1 , same question.
46

And C/C(=C\C(=O)c1ccccc1)Nc1cccc(O)c1 ?
43.1
